details: buffer; pH 7.4; 200.0 µM
// reported solubility kinetic for each item listed

{"Compound": "COc1ccc(Cl)cc1NC(=O)NCCN1CCNC1=O", "solubility kinetic": "43.9 µg/mL"}
{"Compound": "Cc1csc(=O)n1CC(=O)Nc1ccc(Cl)c(Cl)c1", "solubility kinetic": "9.7 µg/mL"}
{"Compound": "CC1(C)CC2(C)OCCN2C(=S)N1 (stereo unspecified)", "solubility kinetic": "> 30 µg/mL"}
{"Compound": "O=[N+]([O-])c1ccc(O)c(Nc2c([N+](=O)[O-])ccc3nonc23)c1", "solubility kinetic": "> 47.6 µg/mL"}
{"Compound": "C/C=C/C(=O)OCc1csc(CC(=O)Nc2ccccc2C)n1", "solubility kinetic": "> 49.6 µg/mL"}
{"Compound": "O=C(NCCCl)C1Cc2c(ccc3ccccc23)O1 (stereo unspecified)", "solubility kinetic": "40.2 µg/mL"}
{"Compound": "CC1CCN(C(=O)COC(=O)Cn2cnc3ccccc32)CC1", "solubility kinetic": "> 47.3 µg/mL"}
{"Compound": "CC(=O)Nc1ccc(N/C=C/C(=O)c2ccccc2)cc1", "solubility kinetic": "4.1 µg/mL"}
{"Compound": "Cc1cc(O)c(C2(O)C(=O)Nc3ccccc32)cc1C (stereo unspecified)", "solubility kinetic": "> 40.4 µg/mL"}
{"Compound": "CC(C)(C)c1cc(C(=O)N2CCc3ccccc3C2)ccn1", "solubility kinetic": "> 44.2 µg/mL"}
{"Compound": "CCCCNC(=O)CN1C(=O)NC2(CCOc3ccccc32)C1=O (stereo unspecified)", "solubility kinetic": "> 49.7 µg/mL"}

====

settings: buffer; pH 7.4; 200.0 µM
// reported solubility kinetic for each item listed
Readout: solubility kinetic (µg/mL)

{"Compound": "Cc1c(C(=O)Nc2cccnc2)oc2ccc(Br)cc12", "Operator symbol": "<", "Measured value": 0.4}
{"Compound": "CCOc1ccc(N(C(C)C(=O)N2CCCC2)S(C)(=O)=O)cc1 (stereo not drawn)", "Operator symbol": ">", "Measured value": 51.1}
{"Compound": "COc1ccc(OCc2nc(-c3ccc(F)c(F)c3)cs2)cc1", "Operator symbol": "<", "Measured value": 0.7}
{"Compound": "CS(=O)(=O)N(CC(=O)N1CCCC1)c1ccccc1Br", "Operator symbol": ">", "Measured value": 54.2}
{"Compound": "Cc1cc(O)cc(=O)n1Cc1ccccc1", "Operator symbol": ">", "Measured value": 32.3}
{"Compound": "NC(=O)c1c(/N=C/c2cccs2)sc2c1CCCC2", "Operator symbol": "=", "Measured value": 18.4}
{"Compound": "CC(NC(=O)COC(=O)CN1C(=O)C2CCCCC2C1=O)c1ccccc1 (stereo not drawn)", "Operator symbol": ">", "Measured value": 55.9}
{"Compound": "Cc1nc(-c2ccccn2)sc1C(=O)O", "Operator symbol": ">", "Measured value": 33}
{"Compound": "CN1C(=O)c2ccc(C(=O)NCc3ccco3)cc2C1=O", "Operator symbol": ">", "Measured value": 42.6}
{"Compound": "O=C(COC(=O)Cc1ccccc1F)NC(=O)NC1CCCC1", "Operator symbol": "=", "Measured value": 42.5}
{"Compound": "CCN(CC)/C(=N\\S(=O)(=O)c1ccc(F)cc1)c1ccccc1", "Operator symbol": ">", "Measured value": 50.2}
{"Compound": "CC1(C)C(=O)N(c2ccccc2)C1c1ccccc1O (stereo not drawn)", "Operator symbol": ">", "Measured value": 40.1}
{"Compound": "CCOC(=O)N1CCN(C(=S)NC(=O)c2cccc(OC)c2)CC1", "Operator symbol": ">", "Measured value": 52.7}
{"Compound": "COC(=O)c1ccc(COc2cc([N+](=O)[O-])cc3cccnc23)o1", "Operator symbol": "=", "Measured value": 3.3}
{"Compound": "CCOc1ccc2nc(NCCNC(=O)C(C)(C)C)c(C)cc2c1", "Operator symbol": "=", "Measured value": 47.1}
{"Compound": "Cc1ccccc1OCC(=O)Nc1ccc2c(c1)n(C)c(=O)n2C", "Operator symbol": "=", "Measured value": 46.2}
{"Compound": "COc1cccc(NC(=S)NCc2ccc(F)cc2)c1", "Operator symbol": "=", "Measured value": 37.9}
{"Compound": "COC(=O)c1ccc(C(=O)OC)c(NC(=S)N2CCCC(CO)C2)c1 (stereo not drawn)", "Operator symbol": "=", "Measured value": 50.9}
{"Compound": "O=S(=O)(Nc1ccc(Cl)cc1)c1cccc2cccnc12", "Operator symbol": "=", "Measured value": 5}
{"Compound": "CCOc1ccccc1NC(=O)Cn1c(=O)oc2cc(Cl)ccc21", "Operator symbol": "=", "Measured value": 10.5}
{"Compound": "O=C(Nc1ccc2ccccc2n1)c1ccccc1", "Operator symbol": "=", "Measured value": 29.8}
{"Compound": "CN(C)CCCNC(=S)Nc1ccc(Br)cc1", "Operator symbol": ">", "Measured value": 47.4}
{"Compound": "COc1ccc2[nH]c(=O)c(CNc3ccc(C)cc3C)cc2c1", "Operator symbol": "=", "Measured value": 41.5}
{"Compound": "NS(=O)(=O)c1cccc(NC(=O)CSc2nnc(-c3ccccc3)o2)c1", "Operator symbol": ">", "Measured value": 58.6}
{"Compound": "O=C(Nc1ccc2[nH]ccc2c1)c1ccc(F)cc1", "Operator symbol": ">", "Measured value": 38.1}
{"Compound": "O=c1[nH]c(Cc2ccccc2)nc2ccccc12", "Operator symbol": "=", "Measured value": 2.5}
{"Compound": "CSc1ccccc1C(=O)OCC(=O)N1CCCCCC1", "Operator symbol": ">", "Measured value": 46.1}
{"Compound": "O=C(NCCCc1ccccc1)C(=O)c1c[nH]c2ccccc12", "Operator symbol": "=", "Measured value": 1.2}
{"Compound": "Cc1ncc([N+](=O)[O-])n1CC(=O)N/N=C/c1ccccc1F", "Operator symbol": ">", "Measured value": 45.8}
{"Compound": "Cc1csc(SC(C)C(=O)Nc2ccccc2C)n1 (stereo not drawn)", "Operator symbol": ">", "Measured value": 43.9}
{"Compound": "O=C(C1CC1)N1CCc2sccc2C1c1ccc(Cl)cc1 (stereo not drawn)", "Operator symbol": "<", "Measured value": 0.7}
{"Compound": "COc1ccc2cc(C#N)c(N3CCOCC3)nc2c1", "Operator symbol": "=", "Measured value": 4.2}
{"Compound": "CSc1ncc(C(C)=O)c(C)n1", "Operator symbol": ">", "Measured value": 27.3}
{"Compound": "CN(CCOc1ccc(F)cc1)Cc1ccccc1.O=C(O)C(=O)O", "Operator symbol": "=", "Measured value": 34.6}
{"Compound": "COc1ccc(NS(=O)(=O)c2cc(NC(=O)[C@H](C)NC(N)=O)ccc2N2CCCC2)cc1", "Operator symbol": ">", "Measured value": 69.2}
{"Compound": "COc1ccc(S(=O)(=O)N2CCCCC2)cc1NC(=O)c1[nH]c(C)c(C(C)=O)c1C", "Operator symbol": "=", "Measured value": 3.2}
{"Compound": "O=C(O)c1cccc2c1C(=O)N(C1CCCC1)C2", "Operator symbol": "=", "Measured value": 34}
{"Compound": "O=C(COC(=O)c1ccc[nH]c1=O)NC1CC1", "Operator symbol": "=", "Measured value": 32.3}
{"Compound": "COc1ccc(CCNCC(=O)Nc2ccc(OC(F)F)cc2)cc1", "Operator symbol": "=", "Measured value": 34.4}
{"Compound": "O=C(NCc1ccccc1F)C(c1ccccc1)c1ccccc1", "Operator symbol": "=", "Measured value": 0.9}
{"Compound": "CCOC(=O)c1ccccc1NC(=S)N1CCC(C(N)=O)CC1", "Operator symbol": "=", "Measured value": 41.6}
{"Compound": "CCc1ccccc1N1C(=O)C(Cl)=C(N2CCOCC2)C1=O", "Operator symbol": "=", "Measured value": 45.8}
{"Compound": "Cc1c(/C=N/NC(=O)c2ccc(Br)o2)cnn1C", "Operator symbol": ">", "Measured value": 46.7}

Reference source for all entries: PubChem BioAssay AID1996
